biological target: Metabotropic glutamate receptor 3 (Homo sapiens, UniProt Q14832); test: Agonist potency against cloned Metabotropic glutamate receptor 3 (mGluR-3).
Sequence (Q14832 whole entry): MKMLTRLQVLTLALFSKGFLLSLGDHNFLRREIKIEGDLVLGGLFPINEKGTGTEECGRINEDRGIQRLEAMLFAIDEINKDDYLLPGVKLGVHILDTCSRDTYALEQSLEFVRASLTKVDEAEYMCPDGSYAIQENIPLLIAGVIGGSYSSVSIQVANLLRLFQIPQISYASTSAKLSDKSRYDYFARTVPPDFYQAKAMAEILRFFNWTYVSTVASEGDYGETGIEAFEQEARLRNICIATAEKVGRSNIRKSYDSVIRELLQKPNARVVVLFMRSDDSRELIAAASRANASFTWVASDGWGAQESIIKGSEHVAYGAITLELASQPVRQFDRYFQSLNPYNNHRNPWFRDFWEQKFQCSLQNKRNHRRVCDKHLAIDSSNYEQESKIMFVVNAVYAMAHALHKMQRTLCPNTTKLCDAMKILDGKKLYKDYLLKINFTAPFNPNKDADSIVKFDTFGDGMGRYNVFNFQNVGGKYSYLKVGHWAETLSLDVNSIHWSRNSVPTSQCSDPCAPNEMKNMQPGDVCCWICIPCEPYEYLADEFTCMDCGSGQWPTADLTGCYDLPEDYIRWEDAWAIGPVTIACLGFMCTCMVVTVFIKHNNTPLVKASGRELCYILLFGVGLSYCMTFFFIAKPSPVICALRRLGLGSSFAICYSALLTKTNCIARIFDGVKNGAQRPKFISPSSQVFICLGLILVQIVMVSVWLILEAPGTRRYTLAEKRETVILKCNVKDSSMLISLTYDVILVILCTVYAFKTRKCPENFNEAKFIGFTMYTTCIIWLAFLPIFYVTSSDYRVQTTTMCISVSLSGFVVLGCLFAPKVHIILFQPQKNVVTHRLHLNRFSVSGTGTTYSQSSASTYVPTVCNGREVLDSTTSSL
RECORDED ENDPOINT: pKi
Scale: pKi equals -log10([C]), with [C] in mol/L.

pKi in this record for `NN1C[C@@](N)(C(=O)O)C[C@@H]1C(=O)O` : 4.28

Query N[C@@]1(C(=O)O)CSC2C1[C@H]2C(=O)O (stereo not given in full) yields pKi of 8.12

Value of pKi reported for the molecule `N[C@H](C(=O)O)[C@H]1C[C@@H]1C(=O)O` is 6.36

Recorded result, N[C@@H](Cn1oc(=O)[nH]c1=O)C(=O)O [QUISQUALATE] , pKi: 4.40

So for `N[C@@]1(C(=O)O)CO[C@H]2[C@H](C(=O)O)[C@H]21` , the logged pKi turned out to be 8.34

Input `N[C@@]1(C(=O)O)CC[C@H]2[C@H](C(=O)O)[C@H]21` . Output pKi: 7.42

Briefly, pKi measured for N[C@]1(C(=O)O)C2C(C[C@H]1O)[C@@H]2C(=O)O (stereo not given in full) : 7.00

Item: `N[C@@H](C[C@H](CC(c1ccccc1)c1ccccc1)C(=O)O)C(=O)O` | pKi: 5.21

// recorded pKi for `N[C@@H](C[C@H](CCCC(c1ccccc1)c1ccccc1)C(=O)O)C(=O)O` : 4.52

Field pKi (entry `N[C@@H](CCC(=O)O)C(=O)O` ) reads 5.05

pKi reported for this molecule `N[C@H](C(=O)O)[C@H]1[C@@H](CCC2c3ccccc3Oc3ccccc32)[C@@H]1C(=O)O` : 6.70

What the record says about `N[C@@]1(C(=O)O)CN[C@@H](C(=O)O)C1` : pKi is 6.39

So for N[C@@]1(C(=O)O)CC2CC1[C@H]2C(=O)O (stereo not given in full) , the logged pKi turned out to be 5.66

====

molecular target: Metabotropic glutamate receptor 2 (Homo sapiens, UniProt Q14416); assay: Antagonist potency against cloned Metabotropic glutamate receptor 2; format: functional
Sequence (Q14416 whole entry): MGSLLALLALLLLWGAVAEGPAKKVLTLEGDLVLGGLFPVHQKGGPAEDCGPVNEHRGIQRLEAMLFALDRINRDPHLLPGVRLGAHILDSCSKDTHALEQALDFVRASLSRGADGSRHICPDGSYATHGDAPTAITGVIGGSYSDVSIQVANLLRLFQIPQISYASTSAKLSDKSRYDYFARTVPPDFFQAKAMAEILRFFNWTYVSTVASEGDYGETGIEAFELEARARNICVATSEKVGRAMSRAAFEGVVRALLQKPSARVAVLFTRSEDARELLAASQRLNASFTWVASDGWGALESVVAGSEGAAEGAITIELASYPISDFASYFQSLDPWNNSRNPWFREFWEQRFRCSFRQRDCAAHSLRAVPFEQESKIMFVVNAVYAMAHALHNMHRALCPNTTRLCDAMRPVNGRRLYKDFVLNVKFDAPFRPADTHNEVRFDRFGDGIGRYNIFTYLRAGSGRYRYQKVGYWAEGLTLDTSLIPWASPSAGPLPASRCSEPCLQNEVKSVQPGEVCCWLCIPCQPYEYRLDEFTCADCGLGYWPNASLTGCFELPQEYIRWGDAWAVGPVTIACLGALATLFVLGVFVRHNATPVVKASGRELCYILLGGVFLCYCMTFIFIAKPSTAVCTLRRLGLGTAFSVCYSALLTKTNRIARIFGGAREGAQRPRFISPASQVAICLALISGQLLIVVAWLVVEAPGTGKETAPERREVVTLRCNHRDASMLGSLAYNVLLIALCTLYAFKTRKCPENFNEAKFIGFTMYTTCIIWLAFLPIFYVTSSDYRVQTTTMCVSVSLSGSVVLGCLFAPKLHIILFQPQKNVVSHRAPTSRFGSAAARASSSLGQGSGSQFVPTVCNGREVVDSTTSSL
RECORDED ENDPOINT: Ki (µM)
Quick reminder: number only, in µM, skip the unit.

The recorded Ki for entry CCC1=C(C(=O)OCN(C)C)C(c2ccccc2OC)N2C=C(c3c(Cl)cccc3Cl)SC2=N1 (stereo unspecified) equals 1

// Ki lookup, compound = `C[C@@](N)(C(=O)O)[C@H]1C[C@@H]1C(=O)O` , result: 84

Value of measured Ki for the entry NC1(C(=O)O)CCc2cc(P(=O)(O)O)ccc21 (stereo unspecified) : 30

Query `N[C@@H](CCCP(=O)(O)O)C(=O)O` yields Ki of 205

Reported Ki ( `Clc1cccc(Cl)c1/C(=C/n1cncn1)OC1CCCCCC1` ) = 0.11

The compound listed as `N[C@]1(C(=O)O)C[C@H](C(=O)O)N(Cc2ccccc2)C1` has a reported Ki of 200

`CC(C)(N)CCP(=O)(O)O` has a reported Ki of 447

Ki for CC(N)(C(=O)O)c1ccc(P(=O)(O)O)cc1 (stereo unspecified) is 11

Lookup result for `N[C@H](C(=O)O)[C@H]1[C@@H](CCC2c3ccccc3Oc3ccccc32)[C@@H]1C(=O)O` ; measured Ki: 0.075

The compound `N[C@@H](C[C@H](CC(c1ccccc1)c1ccccc1)C(=O)O)C(=O)O` showed Ki equal to 18

So for `C[C@](N)(Cn1c(=O)[nH]oc1=O)C(=O)O` , the logged Ki turned out to be 40

Data point: `N[C@@H](C[C@H](CCCC(c1ccccc1)c1ccccc1)C(=O)O)C(=O)O` ; Ki = 50

get_value(item= N[C@]1(C(=O)O)C2C(C[C@H]1O)[C@@H]2C(=O)O (stereo partly specified) , readout=Ki) returns 0.11

The measurements presented in this section are drawn from ChEMBL document CHEMBL1133464.
